# TARGET OF ASSAY: δ-opioid receptor (DOR) (Homo sapiens, UniProt P41143)
# Sequence (P41143 whole entry): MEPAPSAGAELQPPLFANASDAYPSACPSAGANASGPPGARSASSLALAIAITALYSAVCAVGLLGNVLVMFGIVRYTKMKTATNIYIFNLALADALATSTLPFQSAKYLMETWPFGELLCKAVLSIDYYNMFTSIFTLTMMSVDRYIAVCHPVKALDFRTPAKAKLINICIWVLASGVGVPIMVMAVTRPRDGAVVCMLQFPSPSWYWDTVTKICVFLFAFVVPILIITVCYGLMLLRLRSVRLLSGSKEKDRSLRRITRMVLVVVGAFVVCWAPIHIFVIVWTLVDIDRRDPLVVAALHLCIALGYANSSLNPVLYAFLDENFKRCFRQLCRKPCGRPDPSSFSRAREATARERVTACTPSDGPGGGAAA
# ASSAY NAME: DOR agonist cAMP assay (HitHunter cAMP, forskolin-stimulated)
Square brackets hold non-standard residues; d marks the D form. Peptide text beside a SMILES is read from it. Dmt = Cc1cc(O)cc(C)c1C[C@H](N)C(=O)O; dTic = O=C(O)[C@H]1Cc2ccccc2CN1; Sar = CNCC(=O)O
EXPERIMENTAL ENDPOINT: EC50

// known answers, use as guide
MOLECULE	TARGET OF ASSAY	EC50
Cc1cc(O)cc(C)c1C[C@H](N)C(=O)N[C@H](CCCNC(=N)N)C(=O)N[C@@H](Cc1ccccc1)C(=O)N[C@H](C(N)=O)C(C)C [compound 30] (H-[Dmt][dR]FV-NH2)	δ-opioid receptor (DOR) (Homo sapiens, UniProt P41143)	1 to 10 nM
Cc1cc(O)cc(C)c1C[C@H](N)C(=O)N1Cc2ccccc2C[C@@H]1C(=O)N[C@@H](Cc1ccccc1)C(=O)N(C)CC(N)=O [compound 44] (H-[Dmt][dTic]F[Sar]-NH2)	δ-opioid receptor (DOR) (Homo sapiens, UniProt P41143)	1 to 10 nM
Cc1cc(O)cc(C)c1C[C@H](N)C(=O)N[C@H](CC(=O)O)C(=O)NCC(=O)N[C@H](CC(=O)N(C)[C@H](C(=O)O)c1ccccc1)Cc1ccccc1	δ-opioid receptor (DOR) (Homo sapiens, UniProt P41143)	< 1 nM
Cc1cc(O)cc(C)c1C[C@H](N)C(=O)N[C@H](C)C(=O)NCC(=O)N[C@H](CC(=O)N[C@@H](Cc1ccc2ccccc2c1)C(N)=O)Cc1ccccc1	δ-opioid receptor (DOR) (Homo sapiens, UniProt P41143)	1 to 10 nM

Next molecule, EC50 to be filled in.
// map Cc1cc(O)cc(C)c1C[C@H](N)C(=O)N[C@H](C)C(=O)NCC(=O)N[C@H](CC(=O)N(CCCOC(C)C)CC(N)=O)Cc1ccccc1 to recorded EC50 (system: δ-opioid receptor (DOR) (Homo sapiens, UniProt P41143))
< 1 nM

###

The entries below come with measured half-life at 20 μM values attached.
# ASSAY NAME: SGF assay (stability in simulated gastric fluid)
# Type: in vitro ADME
# MEASUREMENT CONTEXT: pig, simulated gastric fluid (SGF) with porcine pepsin, pH 2, pepsin, 37° C.
Square brackets hold non-standard residues; d marks the D form. Peptide text beside a SMILES is read from it. Dmt = Cc1cc(O)cc(C)c1C[C@H](N)C(=O)O; β3hF = N[C@H](CC(=O)O)Cc1ccccc1; Sar = CNCC(=O)O

// known answers, use as guide
COMPOUND	EXPERIMENTAL RESULT
Cc1cc(C(N)=O)cc(C)c1C[C@H](N)C(=O)N[C@H](C)C(=O)NCC(=O)N[C@H](CC(=O)N(C)[C@H](C(=O)O)c1ccccc1)Cc1ccccc1 [compound 99]	> 24 h
C[C@@H](NC(=O)[C@@H](N)Cc1ccc(O)c(F)c1)C(=O)NCC(=O)N[C@H](CC(=O)N(C)CC(N)=O)Cc1ccccc1 [compound 57]	> 24 h

Quick one: half-life at 20 μM for Cc1cc(C(N)=O)cc(C)c1C[C@H](N)C(=O)N[C@H](Cc1ccc(O)cc1)C(=O)NCC(=O)N[C@H](CC(=O)N(C)CC(N)=O)Cc1ccccc1 [compound 85] ?
6 to 24 h

Quick one: half-life at 20 μM for Cc1cc(O)cc(C)c1C[C@H](N)C(=O)N[C@H](C)C(=O)NCC(=O)N[C@H](CC(=O)NCC(N)=O)Cc1ccccc1 [compound 112] ?
> 24 h

Quick one: half-life at 20 μM for Cc1cc(O)cc(C)c1C[C@H](N)C(=O)NCC(=O)NCC(=O)N[C@H](CC(=O)N(C)CC(N)=O)Cc1ccccc1 [compound 81] (H-[Dmt]GG[β3hF][Sar]-NH2) ?
> 24 h

Quick one: half-life at 20 μM for CCCC[C@@H](C(=O)O)N(C)C(=O)C[C@H](Cc1cccc(Cl)c1)NC(=O)CNC(=O)[C@@H](C)NC(=O)[C@@H](N)Cc1c(C)cc(C(N)=O)cc1C [compound 167] ?
> 24 h

Quick one: half-life at 20 μM for Cc1cc(O)cc(C)c1C[C@H](N)C(=O)N[C@H](C)C(=O)NCCC(=O)N[C@H](CC(=O)N(C)CC(N)=O)Cc1ccccc1 [compound 73] ?
0.167 to 6 h

Quick one: half-life at 20 μM for CCCC[C@@H](C(=O)O)N(C)C(=O)C[C@H](Cc1ccccc1)NC(=O)CNC(=O)[C@@H](C)NC(=O)[C@@H](N)Cc1c(C)cc(C(N)=O)cc1C [compound 101] ?
> 24 h

# credit: patent US10278957B2
